// provenance: PubChem BioAssay (NCATS)

Test: qHTS of pediatric cancer cell lines to identify multiple opportunities for drug repurposing: Primary screen for OHS-50 cells (AID 1347103);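 note: plate controls were DMSO neutral control for no effect and bortezomib positive control for full effect; nearly all actives have a fitted effect of over 40% in size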
Settings: OHS-50 osteosarcoma viability, CellTiter-Glo luminescence, 48 h; series mostly up to 57.3 µM
Protocol: Drug repurposing or repositioning has been offered as a strategy for drug development in oncology programs. […] [1] Shen, M et al. Quantitative high-throughput phenotypic screening of pediatric cancer cell lines identifies multiple opportunities for drug repurposing. […] Cells were assayed in growth media at a density of 500-1,000 cells/well. […] After a 15 min incubation at room temperature, samples were analyzed for luminescence intensity using a ViewLux High-throughput CCD imager equipped with clear filters.
Inconclusive results are not listed. Activity calls are given as the source filed them. Calls come from the whole dose curve; as a rule, active = well fitted cell-killing curve with a large enough effect; inconclusive = small, poorly fitted or top-dose-only effect; inactive = no such curve, though single readings can be large or run the other way.
API: response.call in active, inactive

Given C[C@]12C[C@H](O)[C@H]3[C@@H](CCC4=CC(=O)CC[C@@]43C)[C@@H]1CC[C@@H]2C(=O)CO , state the outcome it received in this test.
inactive

Test call for this molecule, please: NCCNCCNCCN
inactive

For O=C(O)CC(O)C(=O)O (centres undefined) , what call appears in the results of this test?
inactive

---

assay: NCATS anti-infectives library activity on HEK293 viability as a counter-qHTS vs the C. elegans viability qHTS (AID 1745854); conditions: HEK293 viability counter-screen; series mostly up to 41.8 µM;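 note: HEK293 cells exposed to compounds for 24 hr before the viability read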
Results filed as inconclusive are left out. The source made the active and inactive calls. Calls come from the whole dose curve; as a rule, active = well fitted cell-killing curve with a large enough effect; inconclusive = small, poorly fitted or top-dose-only effect; inactive = flat fitted curve, though single readings scatter.
metric: outcome

[
  {
    "compound": "O=C(O)c1ccccc1O",
    "outcome": "inactive"
  },
  {
    "compound": "CCOc1nc2cccc(C(=O)O)c2n1Cc1ccc(-c2ccccc2-c2nn[nH]n2)cc1",
    "outcome": "inactive"
  },
  {
    "compound": "Cc1ncc(COP(=O)(O)O)c(C=O)c1O",
    "outcome": "inactive"
  },
  {
    "compound": "CCCCc1ncc(/C=C(\\Cc2cccs2)C(=O)O)n1Cc1ccc(C(=O)O)cc1",
    "outcome": "inactive"
  },
  {
    "compound": "CCCCCCCCCCCCCCCC(=O)NCCO",
    "outcome": "inactive"
  }
]

# input compound: CC(CN1c2ccccc2Sc2ccccc21)N(C)C (stereo not drawn) ; wanted: its outcome
inactive

// lookup outcome for CN(C)CCCN1c2ccccc2Sc2ccc(Cl)cc21
inactive

Using the record for NC(=O)c1ncn([C@@H]2O[C@H](CO)[C@@H](O)[C@H]2O)n1 , report its outcome.
inactive

---

system: P94_40; assay: qHTS profiling for inhibitors of Plasmodium falciparum proliferation (AID 504749); note: nearly all actives have a fitted effect of over 60% in size; conditions: P. falciparum in erythrocytes, SYBR Green DNA, 72 h; series mostly up to 28.7 µM
Inconclusive results are not listed. Active and inactive are the calls of the source. Calls follow the shape of the dose curve; as a rule, active = well fitted inhibition curve with a large enough effect; inconclusive = small, poorly fitted or top-dose-only effect; inactive = flat fitted curve, though single readings scatter.
Respond only with the outcome that fits, drawn from 1 (yes) for active, 0 (no) for inactive

Answered cases to consult:
[
  {
    "molecule": "Cc1c(O)cccc1C(=O)N[C@@H](CSc1ccccc1)[C@H](O)CN1C[C@H]2CCCC[C@H]2C[C@H]1C(=O)NC(C)(C)C",
    "assigned class": "1 (yes)"
  },
  {
    "molecule": "O=C(O)c1ccccc1-c1ccc(C(F)(F)F)cc1",
    "assigned class": "0 (no)"
  },
  {
    "molecule": "Cc1cc(O)cc2c1O[C@](C)(CCC[C@H](C)CCC[C@H](C)CCCC(C)C)CC2",
    "assigned class": "0 (no)"
  },
  {
    "molecule": "CCN(CC)CCNC(=O)c1cc(Cl)c(N)cc1OC",
    "assigned class": "0 (no)"
  }
]

Record request — test call for CC1=C(/C=C/C(C)=C/C=C/C(C)=C/C(=O)O)C(C)(C)CCC1
0 (no)

Fill in: this test's call for Cc1cc(C(C#N)c2ccc(Cl)cc2)c(Cl)cc1NC(=O)c1cc(I)cc(I)c1O (centres undefined) is ___
0 (no)

What was the test verdict on Nc1nc2c(ncn2CCC(CO)CO)c(=O)[nH]1 ?
0 (no)

How was Cc1ccc2nc(N)[nH]c(=O)c2c1Sc1ccncc1 classified in this test?
1 (yes)

Kindly provide the recorded test outcome for the following molecule: CSc1ccc2c(c1)N(CCC1CCCCN1C)c1ccccc1S2 (centres undefined)
1 (yes)

What classification did Cc1cc(CC(=O)O)n(C)c1C(=O)c1ccc(Cl)cc1 end up with in this test?
0 (no)

Recorded test call requested for CCOC(=O)[C@H](CCc1ccccc1)N[C@@H](C)C(=O)N1C(=O)N(C)C[C@H]1C(=O)O
0 (no)

Would you mind telling me which call this test gave COc1ccc(Cl)cc1C(=O)NCCc1ccc(S(=O)(=O)NC(=O)NC2CCCCC2)cc1 ?
0 (no)

Please state the recorded outcome for this molecule: NS(=O)(=O)c1cc2c(cc1Cl)NC(CSCc1ccccc1)=NS2(=O)=O
0 (no)

For CC(C)(C)NCC(O)COc1ccc(NC(=O)NC2CCCCC2)cc1 (centres undefined) , what call appears in the results of this test?
0 (no)
